# measurement-description: PK analysis of RAD001 in blood of tumor bearing NSG mice
# Type: in vivo
# test-conditions: NSG, mouse, whole blood; lowest dose tested (0.3 mg/kg) oral daily; day 0 and day 14; read-out: RAD001 concentration in the blood 24 hours after dosing
# Method: RAD001 dosing: A concentrated micro-emulsion of 50 mg equal to 1 mg RAD001 was formulated and then resuspended in D5W (dextrose 5% in water) at the time of dosing. Mice were orally dosed daily (via oral gavage) with 200 μl of the desired doses of RAD001. PK analysis: Mice were dosed daily with RAD001 starting 7 days post tumor implantation. Dosing groups were as follows: 0.3 mg/kg, 1 mg/kg, 3 mg/kg, and 10 mg/kg. […]
outcome-measure: concentration at 24 h

Memo: CO[C@H]1C[C@@H]2CC[C@@H](C)[C@@](O)(O2)C(=O)C(=O)N2CCCC[C@H]2C(=O)O[C@H]([C@H](C)C[C@@H]2CC[C@@H](OCCO)[C@H](OC)C2)CC(=O)[C@H](C)/C=C(\C)[C@@H](O)[C@@H](OC)C(=O)[C@H](C)C[C@H](C)/C=C/C=C/C=C/1C [RAD001] , reported concentration at 24 h: > 10 nM

---

# measurement-description: PK analysis of RAD001 in blood of tumor bearing NSG mice
# Type: in vivo
# test-conditions: mouse, whole blood, 0.3 mg/kg; NSG mice, daily oral dosing; read-out: Concentration of RAD001 24 hours after the final dose
outcome-measure: concentration at 24 h

Memo: CO[C@H]1C[C@@H]2CC[C@@H](C)[C@@](O)(O2)C(=O)C(=O)N2CCCC[C@H]2C(=O)O[C@H]([C@H](C)C[C@@H]2CC[C@@H](OCCO)[C@H](OC)C2)CC(=O)[C@H](C)/C=C(\C)[C@@H](O)[C@@H](OC)C(=O)[C@H](C)C[C@H](C)/C=C/C=C/C=C/1C , reported concentration at 24 h: > 10 nM
